target: erythrocytes infected with P. falciparum field isolate 9215; experiment: flow cytometry, staining of IEs
readout: % parasite recognition (%)

MGC4 (antibody) VH: EVQLVESGGGLVQPGGSLRLSCEGSGFNSRSYWMTWVRQAPGKGLEWVASINQDGTEKNYVDSVKGRFTISRDSAKNSLYLQMSSLRADDTAVYYCARDRFCGGESHLHGEEDLPRPSISAEPDTVIPLGSHVTFVCRGPVGVHTFRLERGWRYNDTEDVSQAGPSESEARFRIDSVREGNAGLYRCIYYIAPKWSEQSDYLELRVKGGDVTWALLTYCGGDGEESDYPMDVWGKGTTVTVSS VL: QTVVTQEPSLTVSPGGTVTLTCASSTGPVTSAYYPNWFQQKPGQAPRSLIYSINKKHSWTPARFSGSLLGGKAALTLSGVQPEDEADYYCLLSCGGAQPWVFGGGTKLTVQ    21.7
MGD41 (antibody) VH: EVQLVESGPGLVKPSGTLSVTCTISGGSINTDKWWTWVRQPPGKGLEWVGEVLHTGSTNYNPSLRGRVTISVDKSKNQFSLRLSSVTAADTAVYYCATISTLRPQRDIEDLPRPSLSAEPGTVVPLGSHVTFVCRGPVGVQTFRLERESRSTYNDTEDVSQPSPFESEARFRIDSVSEGNAGPYRCIYYKSPKWSDQSDYVELLVKGEDVTWAPPQSQLAPRACPQGELRTSTDIFSMNVWGKGTTVTVSS VL: AIRMTQSPSSLSAFTGDRVTISCRASQDIGNYLDWYHQKPGRAPKLLIHGASTLLTGVPSRFSGSGSGTDFTLNITCLQSGDFGIYYCLQYYSSPPAFGPGTRLEIK    14.7

Values compiled from patent US20180186897A1.
